Values from ChEMBL document CHEMBL1133808

assay: Plasma half-life in Beagle dogs; format: ADME, organism-based, Canis lupus familiaris; conditions: dog
MEASURED PARAMETER: half-life (min)
Please respond with the number in min and leave the unit unwritten.

// query Fill in: half-life of `C[C@@]1(C(=O)N[C@@H](Cc2ccc(-c3ccccc3C#N)cc2)C(=O)O)CCCN1S(=O)(=O)c1cc(Cl)cc(Cl)c1` is ___
// result 204

* * *

test: Plasma half-life in Sprague-Dawley rats; format: ADME, organism-based; details: rat
Exam item: assign 1.0 to entries whose half-life is below 1 h and 0.0 to entries at or above 1 h. Note that a value of exactly 1 h receives 0.0.

As a guide, the following entries are already answered.
| SMILES STR | LABEL CLASS |
| --- | --- |
| COc1cccnc1-c1ccc(C[C@H](NC(=O)[C@]2(C)CCCN2S(=O)(=O)c2cc(Cl)cc(Cl)c2)C(=O)O)cc1 | 1.0 |
| COc1cccc(OC)c1-c1ccc(C[C@H](NC(=O)[C@]2(C)CCCN2S(=O)(=O)c2cc(Cl)cc(Cl)c2)C(=O)O)cc1 | 0.0 |
| C[C@@]1(C(=O)N[C@@H](Cc2ccc(-c3ccccc3C#N)cc2)C(=O)O)CCCN1S(=O)(=O)c1cc(Cl)cc(Cl)c1 | 0.0 |
| COc1cccc(OC)c1-c1ccc(C[C@H](NC(=O)[C@]2(C)CCN2S(=O)(=O)c2cc(Cl)cc(Cl)c2)C(=O)O)cc1 | 0.0 |
| C[C@@]1(C(=O)N[C@@H](Cc2ccc(-c3ccccc3C(N)=O)cc2)C(=O)O)CCCN1S(=O)(=O)c1cc(Cl)cc(Cl)c1 | 0.0 |

For the next question, use this molecule.
// query Is half-life strictly under 1 h for the entry `O=C(O)[C@H](Cc1ccc2ccccc2c1)NC(=O)[C@@H]1CCCN1S(=O)(=O)c1cc(Cl)cc(Cl)c1` ?
// result 1.0
